# Tested on: Dual specificity protein kinase CLK4 (Homo sapiens)
# Assay protocol: qHTS Assay for Inhibitors of CDC-like Kinase 4 (ADP-FP Assay) (AID 1795); note: nearly all actives have a fitted effect of over 60% in size
# Recorded conditions: Transcreener ADP fluorescence polarization; series mostly up to 50 µM
Results filed as inconclusive are left out. The source made the active and inactive calls. Calls come from the whole dose curve; as a rule, active = well fitted inhibition curve with a large enough effect; inconclusive = small, poorly fitted or top-dose-only effect; inactive = flat fitted curve, though single readings scatter.
Outcomes: active, inactive

>>> label_class("CN(C)Cc1ccccc1-c1cc(N(C)Cc2ccco2)ncn1")
"inactive"
>>> label_class("COCCn1c(=O)c(C)nc2cnc(N3CCN(C)CC3)nc21")
"inactive"
>>> label_class("COc1cccc(Nc2ncc3nc(-c4ccc(Cl)cc4)c(=O)n(C4CC4)c3n2)c1")
"inactive"
>>> label_class("COc1cccc(-c2nc(NCc3ccccc3)c3ccccc3n2)c1")
"active"
>>> label_class("N#CCCn1c(=O)cnc2cnc(Oc3ccccc3)nc21")
"inactive"
>>> label_class("CN(Cc1ccco1)c1ncnc2ccc(-c3ccoc3)cc12")
"active"
>>> label_class("Cc1ccccc1-c1cncnc1NCc1cccs1")
"inactive"
>>> label_class("Cn1c(=O)c(-c2cccs2)nc2cnc(N3CCOCC3)nc21")
"inactive"
>>> label_class("FC(F)(F)c1ccccc1-c1cc(NCCN2CCOCC2)ncn1")
"inactive"
>>> label_class("COc1ccc(Oc2ncc3nc(CCc4ccccc4)c(=O)n(C[C@H]4CCCO4)c3n2)cc1")
"inactive"
>>> label_class("COc1ccc(-c2nc3cnc(Oc4ccccc4)nc3n(CCC#N)c2=O)cc1")
"inactive"

###

# Tested on: CP211
# Assay protocol: qHTS profiling for inhibitors of Plasmodium falciparum proliferation (AID 504749); note: nearly all actives have a fitted effect of over 60% in size
# Recorded conditions: P. falciparum in erythrocytes, SYBR Green DNA, 72 h; series mostly up to 28.7 µM
# Experimental: NIH National Institute of Allergy and Infectious Diseases [NIAID] NIH Chemical Genomics Center [NCGC] […] Because mature erythrocytes lack DNA, only Plasmodium-derived DNA is detected. NCGC Assay Protocol Summary: The SYBR Green viability assay was adapted from a method described previously (Plouffe et al., 2008). […] The following morning, fluorescence intensity at 485(14) nm excitation and 535(25) nm emission wavelengths was measured on an EnVision (Perkin Elmer) plate reader. […]
Records with an inconclusive call do not appear. Calls of active or inactive are those of the source. Calls follow the shape of the dose curve; as a rule, active = well fitted inhibition curve with a large enough effect; inconclusive = small, poorly fitted or top-dose-only effect; inactive = flat fitted curve, though single readings scatter.
Outcomes: active, inactive

>>> label_class("COc1cc2c(cc1OC)C(c1ccccc1)CN(C)CC2 (stereo unspecified)")
"inactive"
>>> label_class("CC(C)C[C@H]1C(=O)N2CCCC2[C@]2(O)O[C@](NC(=O)[C@@H]3C=C4c5cccc6[nH]c(Br)c(c56)C[C@H]4N(C)C3)(C(C)C)C(=O)N12 (stereo partly specified)")
"active"
>>> label_class("C[C@@H]1[C@H](O)[C@@H](C)/C=C/C=C/C=C/C=C/C=C/C=C/C=C/[C@H](O[C@@H]2O[C@H](C)[C@@H](O)[C@H](N)[C@@H]2O)C[C@@H]2O[C@](O)(C[C@@H](O)C[C@@H](O)[C@H](O)CC[C@@H](O)C[C@@H](O)CC(=O)O[C@H]1C)C[C@H](O)[C@H]2C(=O)O")
"inactive"
>>> label_class("CN1C(=O)CCC1c1cccnc1 (stereo unspecified)")
"inactive"
>>> label_class("Oc1ccc(/C=C\\c2cc(O)cc(O)c2)cc1")
"inactive"
>>> label_class("CO[C@H]1/C=C/O[C@@]2(C)Oc3c(C)c(O)c4c(O)c(c(/C=N\\N5CCN(C6CCCC6)CC5)c(O)c4c3C2=O)NC(=O)/C(C)=C\\C=C\\[C@H](C)[C@H](O)[C@@H](C)[C@@H](O)[C@@H](C)[C@H](OC(C)=O)[C@@H]1C")
"active"
